- System: Crude diglycosidase
- ASSAY_PROTOCOL: Examination of temperature in the conversion into isoflavone aglycons by diglycosidase using soybean materials
- Assay type: biochemical, Penicillium multicolor IAM7153
- DETAILS: 30° C., heat treatment of enzyme yes, reaction time 6 h
Property: Decomposition efficiency of daidzin family in concentrated soybean protein; scope: individual molecules
QUANTITY: Decomposition efficiency of daidzin family in concentrated soybean protein (%)

molecule="CC(=O)OC[C@H]1O[C@@H](Oc2ccc3c(=O)c(-c4ccc(O)cc4)coc3c2)[C@H](O)[C@@H](O)[C@@H]1O [acetyldaidzin, 6″-O-acetyldaidzin]" readout_units=% observed=42.3
molecule="O=c1c(-c2ccc(O)cc2)coc2cc(O)ccc12 [daidzein]" readout_units=% observed=3.2
molecule="O=c1c(-c2ccc(O)cc2)coc2cc(O[C@@H]3O[C@H](CO)[C@@H](O)[C@H](O)[C@H]3O)ccc12 [daidzin]" readout_units=% observed=54.5

---

- System: Crude diglycosidase
- ASSAY_PROTOCOL: Examination of pH in the conversion into isoflavone aglycons by diglycosidase using soybean materials
- Format: biochemical, Penicillium multicolor IAM7153
- DETAILS: pH4, heat treatment of enzyme no, reaction time 0 h, 55° C.
QUANTITY: Decomposition efficiency of daidzin family in roasted soy flour

mol_smiles=O=c1c(-c2ccc(O)cc2)coc2cc(O)ccc12 observed=3.5
mol_smiles=CC(=O)OC[C@H]1O[C@@H](Oc2ccc3c(=O)c(-c4ccc(O)cc4)coc3c2)[C@H](O)[C@@H](O)[C@@H]1O observed=47.7
mol_smiles=O=c1c(-c2ccc(O)cc2)coc2cc(O[C@@H]3O[C@H](CO)[C@@H](O)[C@H](O)[C@H]3O)ccc12 observed=48.7

---

- Test system: Crude diglycosidase
- ASSAY_PROTOCOL: Examination of temperature in the conversion into isoflavone aglycons by diglycosidase using soybean materials
- Format: biochemical, Penicillium multicolor IAM7153
- Design: concentration or dose not given beside the values
- DETAILS: 80° C., heat treatment of enzyme no, reaction time 6 h
QUANTITY: Decomposition efficiency of glycitin family in defatted soybean (%)

mol_smiles=COc1cc2c(=O)c(-c3ccc(O)cc3)coc2cc1O[C@@H]1O[C@H](COC(=O)CC(=O)O)[C@@H](O)[C@H](O)[C@H]1O observed=40.3
mol_smiles=COc1cc2c(=O)c(-c3ccc(O)cc3)coc2cc1O observed=59.7

---

- Test system: Crude diglycosidase
- ASSAY_PROTOCOL: Examination of temperature in the conversion into isoflavone aglycons by diglycosidase using soybean materials
- Assay type: biochemical, Penicillium multicolor IAM7153
- DETAILS: 30 °C; heat treatment of enzyme: no; 1 h
Property: Decomposition efficiency of glycitin family in soymilk; scope: individual compounds
QUANTITY: Decomposition efficiency of glycitin family in soymilk (%)

mol_smiles=COc1cc2c(=O)c(-c3ccc(O)cc3)coc2cc1O readout_units=% observed=49.0
mol_smiles=COc1cc2c(=O)c(-c3ccc(O)cc3)coc2cc1O[C@@H]1O[C@H](COC(=O)CC(=O)O)[C@@H](O)[C@H](O)[C@H]1O readout_units=% observed=51.0

---

- Test system: Crude diglycosidase
- ASSAY_PROTOCOL: Examination of temperature in the conversion into isoflavone aglycons by diglycosidase using soybean materials
- Type: biochemical, Penicillium multicolor IAM7153
- Design: concentration or dose not given beside the values
- DETAILS: 55° C., heat treatment of enzyme no, reaction time 3 h
- Method: Into 400 μL of 20 mM acetate buffer of pH 4.0 was suspended 50 mg of each of various soybean materials (roasted soy flour (manufactured by Fuji Shokuryo K.K.), soymilk (manufactured by Gitoh Shokuhin K.K.), defatted soybean (manufactured by Fuji Seiyu K.K.), concentrated soybean protein (manufactured by Fuji Seiyu K.K.)), whereby a substrate solution was prepared. Crude diglycosidase was diluted with 20 mM acetate buffer of pH 4.0 to be the glycosidase activity of 1.88 AU/mL. […]
QUANTITY: Decomposition efficiency of daidzin family in defatted soybean

mol_smiles=CC(=O)OC[C@H]1O[C@@H](Oc2ccc3c(=O)c(-c4ccc(O)cc4)coc3c2)[C@H](O)[C@@H](O)[C@@H]1O system_under_test="Crude diglycosidase" observed="not detected"
mol_smiles=O=C(O)CC(=O)OC[C@H]1O[C@@H](Oc2ccc3c(=O)c(-c4ccc(O)cc4)coc3c2)[C@H](O)[C@@H](O)[C@@H]1O system_under_test="Crude diglycosidase" observed=42.7%
mol_smiles=O=c1c(-c2ccc(O)cc2)coc2cc(O)ccc12 system_under_test="Crude diglycosidase" observed=57.3%
mol_smiles=O=c1c(-c2ccc(O)cc2)coc2cc(O[C@@H]3O[C@H](CO)[C@@H](O)[C@H](O)[C@H]3O)ccc12 system_under_test="Crude diglycosidase" observed="not detected"

---

- System: Crude diglycosidase
- ASSAY_PROTOCOL: Examination of substrate concentration in the conversion into isoflavone aglycons by diglycosidase using soybean materials;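 further: percent of the isoflavone family total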
- Assay type: biochemical, Penicillium multicolor IAM7153
- DETAILS: soymilk, substrate concentration 30%, heat treatment of enzyme no, reaction time 0 h
QUANTITY: Decomposition efficiency: ratio of each glycoside/aglycon within its isoflavone family (%)

molecule="COc1cc2c(=O)c(-c3ccc(O)cc3)coc2cc1O[C@@H]1O[C@H](CO)[C@@H](O)[C@H](O)[C@H]1O [glycitin]" observed=50.9
molecule="O=c1c(-c2ccc(O)cc2)coc2cc(O[C@@H]3O[C@H](CO)[C@@H](O)[C@H](O)[C@H]3O)ccc12 [daidzin]" observed=34.9
molecule="COc1cc2c(=O)c(-c3ccc(O)cc3)coc2cc1O[C@@H]1O[C@H](COC(=O)CC(=O)O)[C@@H](O)[C@H](O)[C@H]1O [malonylglycitin, 6″-O-malonylglycitin]" observed=43.0
molecule="O=C(O)CC(=O)OC[C@H]1O[C@@H](Oc2ccc3c(=O)c(-c4ccc(O)cc4)coc3c2)[C@H](O)[C@@H](O)[C@@H]1O [malonyldaidzin, 6″-O-malonyldaidzin]" observed=53.5
molecule="COc1cc2c(=O)c(-c3ccc(O)cc3)coc2cc1O [glycitein]" observed=6.1
molecule="CC(=O)OC[C@H]1O[C@@H](Oc2cc(O)c3c(=O)c(-c4ccc(O)cc4)coc3c2)[C@H](O)[C@@H](O)[C@@H]1O [acetyl-genistin]" observed=0.6
molecule="O=c1c(-c2ccc(O)cc2)coc2cc(O[C@@H]3O[C@H](CO)[C@@H](O)[C@H](O)[C@H]3O)cc(O)c12 [genistin]" observed=33.6
molecule="O=C(O)CC(=O)OC[C@H]1O[C@@H](Oc2cc(O)c3c(=O)c(-c4ccc(O)cc4)coc3c2)[C@H](O)[C@@H](O)[C@@H]1O [malonylgenistin, 6″-O-malonylgenistin]" observed=55.9

---

- Test system: Crude diglycosidase
- ASSAY_PROTOCOL: Examination of substrate concentration in the conversion into isoflavone aglycons by diglycosidase using soybean materials;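 further: percent of the isoflavone family total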
- Format: biochemical, Penicillium multicolor IAM7153
- DETAILS: roasted soy flour, substrate concentration 10%, heat treatment of enzyme no, reaction time 1 h
QUANTITY: Decomposition efficiency: ratio of each glycoside/aglycon within its isoflavone family

compound="O=C(O)CC(=O)OC[C@H]1O[C@@H](Oc2cc(O)c3c(=O)c(-c4ccc(O)cc4)coc3c2)[C@H](O)[C@@H](O)[C@@H]1O [malonylgenistin, 6″-O-malonylgenistin]" observed="not detected"
compound="COc1cc2c(=O)c(-c3ccc(O)cc3)coc2cc1O[C@@H]1O[C@H](COC(C)=O)[C@@H](O)[C@H](O)[C@H]1O [acetylglycitin, 6″-O-acetylglycitin]" observed=16.7%
compound="O=c1c(-c2ccc(O)cc2)coc2cc(O[C@@H]3O[C@H](CO)[C@@H](O)[C@H](O)[C@H]3O)cc(O)c12 [genistin]" observed="not detected"
compound="O=c1c(-c2ccc(O)cc2)coc2cc(O[C@@H]3O[C@H](CO)[C@@H](O)[C@H](O)[C@H]3O)ccc12 [daidzin]" observed="not detected"
compound="COc1cc2c(=O)c(-c3ccc(O)cc3)coc2cc1O[C@@H]1O[C@H](CO)[C@@H](O)[C@H](O)[C@H]1O [glycitin]" observed="not detected"
compound="CC(=O)OC[C@H]1O[C@@H](Oc2ccc3c(=O)c(-c4ccc(O)cc4)coc3c2)[C@H](O)[C@@H](O)[C@@H]1O [acetyldaidzin, 6″-O-acetyldaidzin]" observed=30.5%

---

- Test system: Crude diglycosidase
- ASSAY_PROTOCOL: Examination of pH in the conversion into isoflavone aglycons by diglycosidase using soybean materials
- Assay type: biochemical, Penicillium multicolor IAM7153
- Design: concentration or dose not given beside the values
- DETAILS: pH2.6; heat treatment of enzyme: no; reaction time 6 h
- Description: A substrate solution of 450 μL was prepared by suspending 50 mg of each soybean material (roasted soy flour (manufactured by Fuji Shokuryo K.K.), soymilk (manufactured by Gitoh Shokuhin K.K.), defatted soybean (manufactured by Fuji Seiyu K.K.), concentrated soybean protein (manufactured by Fuji Seiyu K.K.)), and adjusting the pH to 2 to 11 with hydrochloric acid or sodium hydroxide. […]
Property: Decomposition efficiency of daidzin family in defatted soybean; scope: individual compounds
QUANTITY: Decomposition efficiency of daidzin family in defatted soybean (%)

compound="O=c1c(-c2ccc(O)cc2)coc2cc(O[C@@H]3O[C@H](CO)[C@@H](O)[C@H](O)[C@H]3O)ccc12 [daidzin]" system_under_test="Crude diglycosidase" observed=16.9
compound="O=C(O)CC(=O)OC[C@H]1O[C@@H](Oc2ccc3c(=O)c(-c4ccc(O)cc4)coc3c2)[C@H](O)[C@@H](O)[C@@H]1O [malonyldaidzin, 6″-O-malonyldaidzin]" system_under_test="Crude diglycosidase" observed=40.2
compound="O=c1c(-c2ccc(O)cc2)coc2cc(O)ccc12 [daidzein]" system_under_test="Crude diglycosidase" observed=42.9
